Target: DNA (cytosine-5)-methyltransferase 1 (Homo sapiens) (UniProt P26358)
Sequence (P26358 504-1616 limits assumed): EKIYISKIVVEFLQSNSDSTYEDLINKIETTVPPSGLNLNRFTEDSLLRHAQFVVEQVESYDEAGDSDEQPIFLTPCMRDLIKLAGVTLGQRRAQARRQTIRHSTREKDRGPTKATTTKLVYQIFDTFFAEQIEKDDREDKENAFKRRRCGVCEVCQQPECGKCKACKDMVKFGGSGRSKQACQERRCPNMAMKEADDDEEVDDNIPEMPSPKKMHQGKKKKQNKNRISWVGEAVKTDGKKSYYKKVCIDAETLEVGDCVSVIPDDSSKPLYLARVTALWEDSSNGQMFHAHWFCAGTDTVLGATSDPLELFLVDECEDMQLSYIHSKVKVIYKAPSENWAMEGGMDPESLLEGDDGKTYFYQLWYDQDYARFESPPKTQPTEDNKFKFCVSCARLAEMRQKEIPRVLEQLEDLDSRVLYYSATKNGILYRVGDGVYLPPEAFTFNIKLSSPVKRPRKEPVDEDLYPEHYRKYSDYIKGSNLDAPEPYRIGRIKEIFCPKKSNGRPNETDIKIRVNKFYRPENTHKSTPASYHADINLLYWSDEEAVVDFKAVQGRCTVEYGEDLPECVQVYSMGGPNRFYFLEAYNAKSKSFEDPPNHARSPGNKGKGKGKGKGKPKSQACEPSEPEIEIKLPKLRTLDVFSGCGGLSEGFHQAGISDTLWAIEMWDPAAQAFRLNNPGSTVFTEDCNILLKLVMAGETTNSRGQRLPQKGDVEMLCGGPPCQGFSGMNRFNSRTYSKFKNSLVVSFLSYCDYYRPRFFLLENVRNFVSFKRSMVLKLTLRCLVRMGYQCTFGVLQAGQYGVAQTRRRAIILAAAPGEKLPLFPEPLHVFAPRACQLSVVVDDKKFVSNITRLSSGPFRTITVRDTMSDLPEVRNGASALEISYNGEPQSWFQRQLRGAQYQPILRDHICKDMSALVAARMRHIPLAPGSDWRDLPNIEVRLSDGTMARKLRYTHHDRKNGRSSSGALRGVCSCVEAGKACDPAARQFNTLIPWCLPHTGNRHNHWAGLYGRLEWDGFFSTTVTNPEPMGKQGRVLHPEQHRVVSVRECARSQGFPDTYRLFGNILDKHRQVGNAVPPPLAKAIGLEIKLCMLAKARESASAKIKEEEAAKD
Assay: inhibition of DNA methyltransferase DNMT1 – biochemical, molecular beacon, fluorescence, HinP1I cleavage, uHTS, primary screen (AID 588458)
Conditions: at 10 µM
The campaign covered roughly 360,000 compounds. About 3,000 (0.83%) were called active. Cut-off read from the data, not from the text of the source: active = inhibition above about 50%; inactive = the rest. This is one part of a sample in which actives are shown more often than they occur.
Just give me one of these, please: True for active, False for inactive

Illustrative cases are given below, each with its answer.
>>> group("O=C1C(Cl)=C(Oc2ccccc2)C(=O)c2ccccc21")
"True"
>>> group("COc1cc(OC)cc(-c2sc3ccc(OC)cc3c2-c2ccc3cc[nH]c3c2)c1")
"False"
>>> group("O=C(Nc1cccc(F)c1)c1coc(=O)c(Br)c1")
"False"
>>> group("Cn1c(=O)c2[nH]c(NCC3CCCO3)nc2n(-c2ccccc2)c1=O (stereo not given)")
"False"
>>> group("CC(c1nnc(SCC(=O)Nc2sccc2C#N)n1-c1ccc(Cl)cc1)N(C)C (stereo not given)")
"False"

Query string: Hi team, can someone confirm the assay call for "Cc1ccc2cc(C)c(N3CCC(C)CC3)nc2c1" ?
Result string: True

Query string: Quick one: CCC/C=C(\CCC)C(NC(=O)Cc1ccccc1)c1ccc(C(=O)OC)cc1 (stereo not given)
Result string: True

Query string: Quick one: "CN(C)CCNC(=O)c1cccc(-c2cnc3c(NC=O)cc(-c4cccc(C(F)(F)F)c4)cn23)c1"
Result string: False

Query string: Quick one: "O=C(COC(=O)Cn1cnc2ccccc21)Nc1cccc2c1C(=O)c1ccccc1C2=O"
Result string: False

Query string: Quick one: FC(F)(F)c1ccc(-c2cccc3c2C2CC3CCN2Cc2ccccc2)cc1 (stereo not given)
Result string: False
